Test: Half life in beagle dog at 5 mg/kg, po followed by activated charcoal administration 1 hr post compound dosing
Assay type: ADME, organism-based, Canis lupus familiaris
Set-up: dose 5 mg/kg, route oral
Conditions: in vivo
MEASURED_PROPERTY: half-life (h)
Numbers only, in h.

query: Report half-life for `COc1ccc(-n2nc(C(N)=O)c3c2C(=O)N(c2ccc(N4CCCCC4=O)cc2)CC3)cc1` please.
result: 4

###

Assay: Half life in Sprague-Dawley rat at 4 mg/kg, po administered 1 hr post GF-120918 treatment
Type: ADME, organism-based
Parameters: dose 4 mg/kg, route oral
Settings: in vivo, with GF-120918
MEASURED_PROPERTY: half-life (h)
Answers are plain numbers, in h.

query: Which half-life is reported for this compound? `COc1ccc(-n2nc(C(N)=O)c3c2C(=O)N(c2ccc(N4CCCCC4=O)cc2)CC3)cc1`
result: 1.6

###

Test: Half life in beagle dog at 5 mg/kg, po followed by activated charcoal administration 3 hrs post compound dosing
Format: ADME, organism-based, Canis lupus familiaris
Parameters: dose 5 mg/kg, route oral
Details: in vivo
MEASURED_PROPERTY: half-life
Answer format: number, then unit.

query: Give the measured half-life of `COc1ccc(-n2nc(C(N)=O)c3c2C(=O)N(c2ccc(N4CCCCC4=O)cc2)CC3)cc1` .
result: 3 h

###

Assay: Drug recovery in urine of Sprague-Dawley rat at 30 mg/kg, po measured up to 168 hrs
Type: ADME, organism-based
Design: dose 30 mg/kg, route oral
Conditions: read-out: Drug recovery
MEASURED_PROPERTY: dose excreted at 168 h

query: Please report the recorded dose excreted at 168 h for `COc1ccc(-n2nc(C(N)=O)c3c2[14C](=O)N(c2ccc(N4CCCCC4=O)cc2)CC3)cc1` .
result: 13.4%

###

Experiment: Drug recovery in urine of bile duct-cannulated Sprague-Dawley rat at 2 mg/kg, iv administered 1 hr post GF-120918 treatment measured up to 48 hrs
Type: ADME, organism-based
Set-up: dose 2 mg/kg, route intravenous
Conditions: with GF-120918, given 1 hr before the compound, read-out: Drug recovery
MEASURED_PROPERTY: dose excreted (%)
Give bare numbers, in %.

query: // returns reported dose excreted for input `COc1ccc(-n2nc(C(N)=O)c3c2[14C](=O)N(c2ccc(N4CCCCC4=O)cc2)CC3)cc1`
result: 50.6

###

Assay: Drug recovery in feces of bile duct-cannulated Sprague-Dawley rat at 2 mg/kg, iv administered 1 hr post GF-120918 treatment measured up to 48 hrs
Assay type: ADME, organism-based
Parameters: dose 2 mg/kg, route intravenous
Details: with GF-120918, given 1 hr before the compound, read-out: Drug recovery
MEASURED_PROPERTY: dose excreted (%)
Numbers only, in %.

query: What does the record list as dose excreted for `COc1ccc(-n2nc(C(N)=O)c3c2[14C](=O)N(c2ccc(N4CCCCC4=O)cc2)CC3)cc1` ?
result: 13.8

###

Experiment: Half life in human administered bid orally
Type: ADME, organism-based
Settings: in vivo, po
MEASURED_PROPERTY: half-life (h)
One number for each entry, in h.

query: Name the recorded half-life for `COc1ccc(-n2nc(C(N)=O)c3c2C(=O)N(c2ccc(N4CCCCC4=O)cc2)CC3)cc1` .
result: 12
